Test: soluble on expression in E. coli; label from the status in PepcDB or PDB records
READOUT KIND: soluble on expression in E. coli

MVGQIAKEMGLRAYIVGGVVRDILLGKEVWDVDFVVEGNAIELAKELARRHGVNVHPFPEFGTAHLKIGKLKLEFATARRETYPRPGAYPKVEPASLKEDLIRRDFTINAMAISVNLEDYGTLIDYFGGLRDLKDKVIRVLHPVSFIEDPVRILRALRFAGRLNFKLSRSTEKLLKQAVNLGLLKEAPRGRLINEIKLALREDRFLEILELYRKYRVLEEIIEGFQWNEKVLQKLYALRKVVDWHALEFSEERIDYGWLYLLILISNLDYERGKHFLEEMSAPSWVRETYKFMKFKLGSLKEELKKAKENYEVYRLLKPLHTSVLLLLMLEEELKEKIKLYLEKLRKVKLPKEKIEELKKQGLKGKELGERIEELKREIMNKIKLAAALE = soluble
MILGIDIGGANTKITELHENGEFKVHHLYFPMWKNNDKLAEVLKTYSNDVSHVALVTTAELADSYETKKEGVDNILNAAESAFGSNISVFDSNGNFISLESAKTNNMKVSASNWCGTAKWVSKNIEENCILVDMGSTTTDIIPIVEGKVVAEKTDLERLMNHELLYVGTLRTPISHLGNTISFKGVDTNVSSEYFAITADISVVLEKVTTEEYTCDTPDGKGTDKRSSLVRISKVLCSDLDQISEIDAENIAKNYYELWKELILENVENVAEKYGSKKVVITGLGENILKDALADFEVISVAERYGKDVSLATPSFAVAELLKNELLEHHHHHH = soluble

* * *

Test: soluble on expression in E. coli; label from the status in PepcDB or PDB records
READOUT KIND: soluble on expression in E. coli

MGHHHHHHSHIELVCWYMVDRDSIDDEPVDIAFIEGSVSTEEEVELVKKIRENSKIVVAVGACAVQGGVQSWTDKSLEELWRTVYGDAKVKFKPKKAEPVSKYIKVDYNIYGCPPEKRDFLYALGTFL = not soluble
MARPIFSQEIDPYSQEVPKDVAISPSSKFDIYVEAPGEAPFEEADSPAMEYDRELAHHYSHKQLDFLEACSEKPSSKCGNEVFKNMLDETVPITDECCRDILKIGKDCHLGLVKLIFATYEYKNKASKGIPKSKQTWNECVFRVGSKIGAPVSFEQ = soluble
MITCLIVDDELFAREELADSLSQEADIEIIGQCSNAIEALQTITKEKPQLVFLDIQMPRISGMELIAMLDPDTLPKIVFVTAFDEFAVKAFDNHAFDYLLKPIDADRLSKTLKRVRKDLTPQAVNLIAPRSLEHLPCYSGSKLKVIPIQDVEYVFSDLSGIHVACTKGKVHTQLTLKVLEEKTPLVHCHRQYLISPKAIAEIELLDTGAEVTTLLGDKVPVSRRYLKSLKQLFGFQ = not soluble
MFNTTPINIDKWLKENEGLLKPPVNNYCLHKGGFTVMIVGGPNERTGYHINPTPEWFYQKKGSMLLKVVDETDAEPKFIDIIINEGDSYLLPGNVPHSPVRFADTVGIVVEQDRPGGENDKIRWYCSHCRQVVHESELQMLDLGTQVKEAILDFENDVEKRTCFHCKTLNYARPQSN = soluble
MAHHHHHHMASEEPLNEIPGECPTPGDLGHAGWDVLHTAGAVYPYKPSPLQQEAFRSFLYSWSHVYACSHCSYHMRRYLKRNPPVVTDKLALNRYLCEFHNTVNKNIAKPVYNCDPMVVLRRWHPTFPDMEDQPTIEEQIAEQRRLEQAEAQKQKEKELQQKQVQTSSLGDMKASRERLVGRWRSEKSESHEYANNNPSSVGAFATGWSASSRQHENAGDAAAKSAPAPLAESREKRWWIFGKNGSGDKNAGFSSTTGTPSKVNSSGGGSNSGGMNGSLDDDEASVMAILKRLKACMVYCPDKDEKSNSA = not soluble
MEANTSSSGTVTGQRFAERRRSLPPGAELRQRLLKQLKELCDQIGKAYSTLVQKAALVIEPADQAVSLEPDTQRQATCITNLSDEGELWTTVYELNLGVQNLLMFIEDIRLLLLTQAQVPGPSVEENGLKTAGKGGCSPTELEGARFSDRLSSSNTHRFLEQLWDRYTP = soluble
MSARKLFYLGPQGTFTHQAAVNAAQELARFEPQGFDLMPMDDVPQILDAAQHGDGWGIVAWENNVEGYVVPNLDALIDAKDLVGFARVGVNVEFDAYVAQGADPAEARIATAHPHGLAQCKRFIAEHRLSTQPATSNAAACRDLIPGEIAFGPAICGELYDITRIGTAIQDYQGAATDFLVLSPRAE = not soluble

* * *

Assay: soluble on expression in E. coli; label from the status in PepcDB or PDB records
READOUT KIND: soluble on expression in E. coli

MKLTKGKVLLAGCMAMAMSHSVLAQDIKVAIVGAMSGPVAQYGDMQFTGARQAIADINASGGIKGDKLVGVEYDDACDPKQAVAVANKVINDGIRYVIGHLCSSSTQPASDIYEDEGVIMITPAATNADLTTRGYKMIMRTTGLDSDQGPTAAKYIVETIKPKRIAVVHDKQQYGEGLARSVRDSLKEQGAEVVLFEGVTAGDKDFSTLVARLKKENVDFVYFGGYYPEMGQILRQAKQAGLTARFMGPEGVGNSSLSNIAGEASEGMLVTLPKRYDQVPANQPIVDALKAKKLDPTGPFVWTTYAALQSLTTAMERTGSKEPADLANDLKTGKPVETVMGPLSWDDKGDLKGFEFGIFEWHADGSSTAVK = not soluble
QSKDGSVRHSGDNRTGQGDGDDETITVDLTRLPAAVTTVIFSVNNYTGQDFGQVENAYCRLVNTQGGQEIARYNLSVQGNHSAMILASLKRQGGDWAMTAIGAPSR = not soluble
MSKSVSIPQALSDLKRTSLRRLSSARGVGNKKTVVSTSTPLSGFVILVEREEKVVRLYGTAAERAGLSIGDEIVGVNDMKIEGKSYEEVTTYIQECIRRKIIQLKVRRRALEIPAENEASVFNCTNSNRMITDAYLVSVDKDHIKEVTKRLKK = not soluble

* * *

Assay: soluble on expression in E. coli; label from the status in PepcDB or PDB records
READOUT KIND: soluble on expression in E. coli

MGGGGHGGGITYKGVTVHTPKTWHTVTGKGLCAVMWFWILYRAKQDGPVVMGWRHPWDGHGDHGHGDHH = not soluble
MPVKLATALSNNLFPALDSQLRAGRHIGIEELENHVFLMDFQEVLEEFYSRYNVELIRAPEGFFYLRPRSTTLIPRSVLSELDMMVGKILCYLYLSPERLAHEGIFSQQELYEELLSLADESKLLKLVNQRSTGSDLDRQKLQEKVRTSLNRLRRLGMIYFMGNDSSKFRITESVFRFGADVRSGDDAREAQLRMIRDGEAMPVEGSLSLKDDSDDNDRTDDTAPETGEDELEHHHHHH = not soluble

* * *

Experiment: soluble on expression in E. coli; label from the status in PepcDB or PDB records
READOUT KIND: soluble on expression in E. coli

MSLAEITDRDTALFESGIKLGALYHQFVGSPVNLSTAGSLEAAIRDSISLQPCVQSITVAIDREMVRGRINDFGYCELEGRMLGVEAVIRYGTAVVHVGMRYDAEMDYPMMSVQQIEQIGQIRQIEQDKQTEQIRQIRQTEVGEGHHHHHH = soluble
MSATAGRVVRAGQHAVRTVAPIKSNNSAEARMSVLAAYKEFQRLTPKFWWDFGLHDMPLGVFRAVIKKQFTKNGHLTDVRVVDRLVGETHQHMKSIRYAFYNPDHVRNYLFAENVEAKPKDFLSKFLNGKE = not soluble
MSLMKRQFEDVTRIVIKIGTSSLVLPTGKINLEKIDQLAFVISSLMNKGKEVILVSSGAMGFGLDILKMEKRPTNLAKQQAVSSVGQVAMMSLYSQIFAYYQTNVSQILLTRDVVVFPESLANVTNAFESLISLGIVPIVNENDAVSVDEMDHATKFGDNDRLSAVVAGITKADLLIMLSDIDGLFDKNPTIYEDAQLRSHVANITQEIIASAGGAGSKFGTGGMLSKVQSAQMVFENKGQMVLMNGANPRDILRVLEGQPLGTWFKQIEEVRHDEGHHHHHH = soluble
MTADWVVTFTFDADPSMETMDAWETQLEGFDALVSRVPGHGIDVTVYAPGDWSVFDALAKMAGEVMPVVQAKSPIAVQIISEPEHRLRAEAFTTPELMSAAEIADELGVSRQRVHQLRSTAGFPAPLADLRGGAVWDAAAVRRFAETWERKPGRPHTGTAKFAYSWAVGPAVGRSGKAPNVRWRVENPDKIRFVLRNIGDDIAEDVEIDLSRIDAITRNVPKKTVIRPGEGLNMVLIAAWGHPLPNQLYVRWAGQDEWAAVPLHPAH = soluble
MGSDKIHHHHHHMDKQLWEKAVAFHGHECPGLAIGFRACEAVQEKMGLKFSQDEEVVCVTENDACGADAVQVITGCSFGKGNLIYRGTGKMAFSFFSRNTGESMRIVLKPSSSEMDRQERQNYILTAPMDDVFEFKKPGFTLPKQARLFKTVICEVCGEGAPEHKMRLQEGKKVCLDCFEDYSRGY = not soluble
MNIELLQQLCEASAVSGDEQEVRDILINTLEPCVNEITFDGLGSFVARKGNKGPKVAVVGHMDEVGFMVTHIDESGFLRFTTIGGWWNQSMLNHRVTIRTHKGVKIPGVIGSVAPHALTEKQKQQPLSFDEMFIDIGANSREEVEKRGVEIGNFISPEANFACWGEDKVVGKALDNRIGCAMMAELLQTVNNPEITLYGVGSVEEEVGLRGAQTSAEHIKPDVVIVLDTAVAGDVPGIDNIKYPLKLGQGPGLMLFDKRYFPNQKLVAALKSCAAHNDLPLQFSTMKTGATDGGRYNVMGGGRPVVALCLPTRYLHANSGMISKADYEALLTLIRGFLTTLTAEKVNAFSQFRQVD = not soluble
